Target: T1, recombinant LILRA3 (human, UniProt Q8N6C8 24-439)
T1 construct: whole entry named; also called LILRA3 ECD; LILA3
T1 sequence (Q8N6C8 24-439 limits assumed): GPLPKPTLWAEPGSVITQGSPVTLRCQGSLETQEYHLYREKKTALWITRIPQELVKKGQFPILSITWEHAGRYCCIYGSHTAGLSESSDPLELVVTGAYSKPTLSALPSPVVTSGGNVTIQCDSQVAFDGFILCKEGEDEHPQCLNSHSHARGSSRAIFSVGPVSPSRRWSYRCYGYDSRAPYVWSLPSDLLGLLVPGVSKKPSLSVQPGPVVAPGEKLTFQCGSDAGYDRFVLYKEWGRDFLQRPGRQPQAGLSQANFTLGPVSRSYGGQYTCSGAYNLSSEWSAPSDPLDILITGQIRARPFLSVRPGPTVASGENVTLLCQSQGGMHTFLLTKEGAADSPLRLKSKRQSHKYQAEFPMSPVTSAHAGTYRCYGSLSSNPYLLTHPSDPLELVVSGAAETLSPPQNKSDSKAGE
Test: BLI, IgG on AHC sensor, ECD in solution
Procedure: Briefly, IgGs were captured on anti-human capture (AHC) biosensors (Sartorius). […] Subsequently, the sensors were dipped into 1× Kinetics Buffer to measure the dissociation over 420 s. All sensorgrams were double referenced against 1× Kinetics Buffer and unloaded […] sensors to subtract sensor drifts and potential reference binding of the analytes. The affinities were determined by applying a 1:1 binding model.
Property Label: pKd
Recall that pKd is obtained by taking minus log10 of the concentration measured in molar.

Look over these answered cases.
A-048 (antibody, V domains shown, tested as IgG) VH: QVQLVQSGAEVKKPGSSVKVSCKASGYTFSKSAMSWVRQAPGQGLEWMGGIVPKFHTSVYAQKFQGRVTITADESTSTAYMELSSLRSEDTAVYYCAKGPPVGSSSWYTDWYFDLWGRGTLVTVSS VL: SYELTQPPSVSVSPGQTASITCSGDKLGDKYASWYQQKPGQSPVLVIYQDSKRPSGIPERFSGSNSGNTATLTISGTQAEDEADYYCALYGGGHTVVFGGGTKLTVL; 5.71
A-021 (antibody, V domains shown, tested as IgG) VH: QVQLVQSGAEVKKPGSSVKVSCKASGGSITSYAFAWVRQAPGQGLEWMGGIIPGFYAANYAQKFQGRVTITADESTSTAYMELSSLRSEDTAVYYCAKDLGTYSSGWPYYYGMDVWGQGTTVTVSS VL: SYELTQPPSVSVSPGQTASITCSGDKLGDKYASWYQQKPGQSPVLVIYQDSKRPSGIPERFSGSNSGNTATLTISGTQAEDEADYYCQSTTHTSFVFGGGTKLTVL; 6.80
A-023 (antibody, V domains shown, tested as IgG) VH: QVQLVQSGAEVKKPGSSVKVSCKASGYTFQQYAMSWVRQAPGQGLEWIGGIIPQFSTSVYAQKFQGRVTITADESTSTAYMELSSLRSEDTAVYYCAKGPPVGSSSWYTDWYFDLWGRGTLVTVSS VL: SYELTQPPSVSVSPGQTASITCSGDKLGDKYASWYQQKPGQSPVLVIYQDSKRPSGIPERFSGSNSGNTATLTISGTQAEDEADYYCLSYGAHSHGVVFGGGTKLTVL; 6.64

query: Value lookup for pKd; key = A-017 (antibody, V domains shown, tested as IgG) VH: QVQLVQSGAEVKKPGSSVKVSCKASGGTFSSYAISWVRQAPGQGLEWMGGIIPYFSLANYAPKFQGRVTITADESTSTAYMELSSLRSEDTAVYYCAKDLGTYSSGWPYYYGMDVWGQGTTVTVSS VL: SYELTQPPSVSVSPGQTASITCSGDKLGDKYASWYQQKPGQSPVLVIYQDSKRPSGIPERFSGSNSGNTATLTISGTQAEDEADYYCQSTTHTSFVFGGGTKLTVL
result: 6.65

query: Could you tell me which pKd is on file for A-031 (antibody, V domains shown, tested as IgG) VH: QVQLVQSGAEVKKPGSSVKVSCKASGYTFTKTAMSWVRQAPGQGLEWMGGIIPSYYTAVYAQKFQGRVTITADESTSTAYMELSSLRSEDTAVYYCAKGPPVGSSSWYTDWYFDLWGRGTLVTVSS VL: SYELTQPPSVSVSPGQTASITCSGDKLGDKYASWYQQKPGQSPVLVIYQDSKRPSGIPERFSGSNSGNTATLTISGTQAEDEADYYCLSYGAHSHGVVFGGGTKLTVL ?
result: 7.30

query: Reported pKd, binder A-038 (antibody, V domains shown, tested as IgG) VH: QVQLVQSGAEVKKPGSSVKVSCKASGGTFSSYAISWVRQAPGQGLEWMGGIIPIFGTANYAQKFQGRVTITADESTSTAYMELSSLRSEDTAVYYCAKGPPVGSSSWYTDWYFDLWGRGTLVTVSS VL: SYELTQPPSVSVSPGQTASITCSGDKLGDKYASWYQQKPGQSPVLVIYQDSKRPSGIPERFSGSNSGNTATLTISGTQAEDEADYYCSLYGAGHTVVFGGGTKLTVL : ____
result: 6.35

query: Report pKd for A-003 (antibody, V domains shown, tested as IgG; also called parental antibody A-003) VH: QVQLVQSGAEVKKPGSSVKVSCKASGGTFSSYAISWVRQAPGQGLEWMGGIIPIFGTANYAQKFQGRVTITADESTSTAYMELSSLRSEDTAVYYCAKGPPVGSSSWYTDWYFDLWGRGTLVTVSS VL: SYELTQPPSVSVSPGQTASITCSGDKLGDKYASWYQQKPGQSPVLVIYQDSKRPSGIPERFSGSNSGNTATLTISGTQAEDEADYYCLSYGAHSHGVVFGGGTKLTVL please.
result: 6.28

query: Need pKd, item A-035 (antibody, V domains shown, tested as IgG) VH: QVQLVQSGAEVKKPGSSVKVSCKASGGTFSSYAISWVRQAPGQGLEWMGGIIPIFGTANYAQKFQGRVTITADESTSTAYMELSSLRSEDTAVYYCAKDLGTYSSGWPYYYGMDVWGQGTTVTVSS VL: SYELTQPPSVSVSPGQTASITCSGDKLGDKYASWYQQKPGQSPVLVIYQDSKRPSGIPERFSGSNSGNTATLTISGTQAEDEADYYCQLSHGTLLVFGGGTKLTVL
result: 5.90

query: Please report the recorded pKd for A-007 (antibody, V domains shown, tested as IgG) VH: QVQLVQSGAEVKKPGSSVKVSCKASGGSFREYAFSWVRQAPGQGLEWMGSIIPTFHTSNYAGKFQGRVTITADESTSTAYMELSSLRSEDTAVYYCAKDLGTYSSGWPYYYGMDVWGQGTTVTVSS VL: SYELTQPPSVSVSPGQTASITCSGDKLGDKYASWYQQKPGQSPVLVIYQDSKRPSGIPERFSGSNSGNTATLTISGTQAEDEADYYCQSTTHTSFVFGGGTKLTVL .
result: 6.59

query: May I ask what pKd has been recorded for A-022 (antibody, V domains shown, tested as IgG) VH: QVQLVQSGAEVKKPGSSVKVSCKASGGTFGGSAISWVRQAPGQGLEWMGGIVLAYSTSVYAQKFQGRVTITADESTSTAYMELSSLRSEDTAVYYCAKGPPVGSSSWYTDWYFDLWGRGTLVTVSS VL: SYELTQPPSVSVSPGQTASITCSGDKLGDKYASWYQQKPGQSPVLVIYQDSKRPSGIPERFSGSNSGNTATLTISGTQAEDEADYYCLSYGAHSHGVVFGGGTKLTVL ?
result: 6.50

query: Recorded pKd of A-012 (antibody, V domains shown, tested as IgG) VH: QVQLVQSGAEVKKPGSSVKVSCKASGGTISEYAFLWVRQAPGQGLEWMGGIIPKFHTANYAQKFQGRVTITADESTSTAYMELSSLRSEDTAVYYCAKDLGTYSSGWPYYYGMDVWGQGTTVTVSS VL: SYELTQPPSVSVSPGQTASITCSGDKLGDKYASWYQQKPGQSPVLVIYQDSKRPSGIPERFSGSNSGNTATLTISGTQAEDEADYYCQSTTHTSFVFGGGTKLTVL , please.
result: 6.78
